For each entry below, report its GI50 value.
test system: SK-MEL-2 melanoma; test: NCI tumour cell line growth inhibition, 48 h

Quick one: give me GI50 for each item below, same order please.
1. Clc1ccc(N2COOC3(OOC2)C2CC4CC(C2)CC3C4)cc1
2. COc1cccc(-c2nc(-c3ccc(NS(=O)(=O)c4ccccc4)cc3)[nH]c2-c2ccnc(Br)c2)c1
3. c1ccc(Oc2c3ccccc3nc3ccccc23)cc1
4. OCc1ccc(N(Cc2ccc(F)cc2)C2CCC2)cc1Cl
5. Cc1ccc2c(/C=C/C(=O)c3cc(CN4CCOCC4)c(O)c4nc(C)ccc34)cc(CN3CCOCC3)c(O)c2n1
6. COc1ccc(-c2nc3sccn3c2/C=C/C(=O)c2cc(OC)c(OC)c(OC)c2)cc1OC

Result:
1. 10.5 µM
2. 2.5 µM
3. 3.95 µM
4. 4.89 µM
5. 0.623 µM
6. 1.87 µM

====

Record form. Attribute: TGI. Fill in for each entry.
test system: SF-268 CNS; test: NCI tumour cell line growth inhibition, 48 h

Below are worked cases with known answers.
COc1ccc(/C=C/C(=N/NC(=O)N/N=C(/C=C/c2ccc(OC)cc2)C(C)C)C(C)C)cc1 ... > 100 µM
c1ccc2nc3c(nc2c1)sc1nc2ccccc2n13 ... > 100 µM
COC(=O)C1Cc2c(n(C)c3ccccc23)C(c2ccccc2)N1 (stereo not drawn) ... > 100 µM

Hey, can you go through the list below and give me TGI for every item?
1. COc1ccc(/C=C\c2cc(OC)c(OC)c(OC)c2)cc1NC(=O)[C@@H](N)CO
2. O=C(c1c(F)c(F)c(F)c(F)c1F)n1c(=O)[nH]c2ccccc21
3. CC[C@@]1(O)C(=O)OCc2c1cc1n(c2=O)Cc2c-1nc1ccccc1c2C=Nc1ccc(N[C@@H]2c3cc4c(cc3[C@@H](c3cc(OC)c(O)c(OC)c3)[C@H]3C(=O)OC[C@@H]32)OCO4)cc1
4. COc1ccccc1/[N+]([O-])=C/c1ccccc1OC(=S)S
5. COc1ccc(/C=C/C(=O)c2cccc(C(=O)/C=C/c3ccc(OC)c(OC)c3)n2)cc1OC

Result:
1. > 100 µM
2. 34.1 µM
3. > 100 µM
4. > 100 µM
5. > 89.3 µM

====

test system: SNB-75 CNS; assay: NCI tumour cell line growth inhibition, 48 h
resultType: TGI

CCOC(=O)C12C3CCC1C2C(=O)C3 (configuration not stated) ... > 100 µM
O=C1CSC2(CC(/C=C/c3cccc(Br)c3)=NN2c2cccc(S(=O)(=O)O)c2)N1c1nc2ccccc2s1 (configuration not stated) ... > 100 µM
O=c1cnn(C/C=C/CP(=O)(O)O)c(=O)[nH]1 ... > 100 µM
O=C1C(Cl)=C(Oc2ccccc2)C(=O)c2ccccc21 ... 12.9 µM
CCOC(=O)NC(Nc1cccc(F)c1)(C(F)(F)F)C(F)(F)F ... > 100 µM

Give TGI for each listed item.
1. COc1ccc(C[C@H]2NC[C@H](OC(C)=O)[C@H]2OC(C)=O)cc1
2. CCOC(=O)c1nc2cc(F)c(F)cc2nc1NCc1cc(OC)c(OC)c(OC)c1

Result:
0.362 µM
> 100 µM

====

system: DU-145 prostate; assay: NCI tumour cell line growth inhibition, 48 h
So I've got a bunch of compounds here, and I need their TGI values.

Consider the worked cases shown below.
Cc1cccc2c1CC(C1OC(=O)c3c(C)cccc31)C2=O (stereo unspecified) ... > 100 µM
C=C[C@@]1(C)CC(=O)[C@]2(O)[C@@]3(C)[C@@H](OC(C)=O)CCC(C)(C)[C@@H]3[C@H](O)[C@H](OC(C)=O)[C@@]2(C)O1 ... > 100 µM
N#Cc1c(-c2cccc(Br)c2)cc(-c2ccc(Cl)cc2)nc1N ... > 100 µM
COc1cc(/C=C2\N=C(c3ccccc3)N(c3ccc(S(=O)(=O)Nc4nccs4)cc3)C2=O)ccc1O ... > 100 µM

Each of the following entries comes with a recorded value; kindly state TGI for each.
1. COc1cc2c(cc1C)NC(=O)/C2=C\c1cccnc1
2. COc1ccc(C[C@H]2NC[C@H](OC(C)=O)[C@H]2OC(C)=O)cc1
3. Cc1nc2ccc(S(=O)(=O)Nc3ccccn3)cc2c(=O)n1NS(=O)(=O)c1ccccn1
4. O=C1c2scc(-c3ccc(F)cc3)c2-n2cccc21
5. COC(=O)C1=C(O)C(C(=O)OC)[C@]2(O)[C@H](C(=O)OC)[C@H]1C[C@@H](c1ccc(O)cc1)[C@H]2C(=O)OC (stereo partly specified)

Result:
["54.3 µM", "0.903 µM", "> 100 µM", "> 100 µM", "71.6 µM"]

Each of the following entries comes with a recorded value; kindly state TGI for each.
1. O=C(c1c(F)c(F)c(F)c(F)c1F)n1c(=O)[nH]c2ccccc21
2. COc1nc(N)nc2c1n(C)c[n+]2C

Result:
["29.6 µM", "> 100 µM"]
